- system tested: Adenosine receptor A2a (Homo sapiens)
- Sequence (P29274 whole entry): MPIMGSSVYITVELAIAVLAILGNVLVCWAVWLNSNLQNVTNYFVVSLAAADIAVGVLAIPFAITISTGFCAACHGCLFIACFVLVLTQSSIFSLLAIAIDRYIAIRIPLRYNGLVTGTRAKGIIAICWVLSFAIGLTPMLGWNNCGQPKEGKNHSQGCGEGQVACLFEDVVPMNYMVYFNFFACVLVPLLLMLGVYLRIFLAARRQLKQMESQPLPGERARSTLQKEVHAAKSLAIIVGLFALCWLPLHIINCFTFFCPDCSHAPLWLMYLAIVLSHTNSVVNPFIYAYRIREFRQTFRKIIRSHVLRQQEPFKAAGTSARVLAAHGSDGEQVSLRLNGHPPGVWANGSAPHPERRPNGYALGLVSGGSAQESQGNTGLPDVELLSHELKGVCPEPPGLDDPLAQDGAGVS
- experiment summary: Antagonist activity at human adenosine A2A receptor expressed in Flp-In-CHO cell membrane assessed as inhibition of NECA-induced cAMP accumulation in presence of forskolin measured after 40 mins by alpha screen LANCE assay
Define the label as Fulfilled when Ki is strictly less than 40 nM and as Not fulfilled in all remaining cases.

// below: answered compounds
- CCCCn1c(=O)c2nc(C34CCC(C(=O)NCCOCCOCCOCCN=[N+]=[N-])(CC3)CC4)[nH]c2n(CCCNC(=O)c2ccc(S(=O)(=O)F)cc2)c1=O: Fulfilled
- CCCn1c(=O)c2nc(C34CCC(C(=O)NCCCN=[N+]=[N-])(CC3)CC4)[nH]c2n(CCCNC(=O)c2ccc(S(=O)(=O)F)cc2)c1=O: Fulfilled
- CCCCn1c(=O)c2nc(C34CCC(C(=O)NCCCN=[N+]=[N-])(CC3)CC4)[nH]c2n(CCCNC(=O)c2ccc(S(=O)(=O)F)cc2)c1=O: Fulfilled

Exam item: Identify whether the compound CCCCn1c(=O)c2nc(C34CCC(C(=O)NCCOCCOCCN=[N+]=[N-])(CC3)CC4)[nH]c2n(CCCNC(=O)c2ccc(S(=O)(=O)F)cc2)c1=O records Ki below 40 nM.
Marked response: Fulfilled

Exam item: Strictly below 40 nM in Ki? CCCCn1c(=O)c2nc(C34CCC(C(=O)NCCCCN=[N+]=[N-])(CC3)CC4)[nH]c2n(CCCNC(=O)c2ccc(S(=O)(=O)F)cc2)c1=O
Marked response: Not fulfilled

----------
- system tested: Adenosine receptor A2b (Homo sapiens)
- Sequence (P29275 whole entry): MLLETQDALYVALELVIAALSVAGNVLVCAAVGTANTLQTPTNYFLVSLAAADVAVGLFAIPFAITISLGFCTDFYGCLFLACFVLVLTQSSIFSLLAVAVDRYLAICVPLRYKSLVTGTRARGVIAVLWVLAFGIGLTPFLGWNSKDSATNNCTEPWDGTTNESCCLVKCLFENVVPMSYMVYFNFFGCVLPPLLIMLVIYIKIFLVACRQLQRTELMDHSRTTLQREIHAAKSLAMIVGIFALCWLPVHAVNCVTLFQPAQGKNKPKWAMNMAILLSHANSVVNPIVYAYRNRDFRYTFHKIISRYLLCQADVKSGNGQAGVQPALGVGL
- experiment summary: Antagonist activity at human adenosine A2B receptor expressed in Flp-In-CHO cell membrane assessed as inhibition of NECA-induced cAMP accumulation in presence of forskolin measured after 40 mins by alpha screen LANCE assay
property name: Ki (nM)
The reply should contain only the number, in nM.

Example cases with answers are listed next.
• CCCCn1c(=O)c2nc(C34CCC(C(=O)NCCCCCCCCN=[N+]=[N-])(CC3)CC4)[nH]c2n(CCCNC(=O)c2ccc(S(=O)(=O)F)cc2)c1=O = 6.7
• CCCCn1c(=O)c2nc(C34CCC(C(=O)NCCCN=[N+]=[N-])(CC3)CC4)[nH]c2n(CCCNC(=O)c2ccc(S(=O)(=O)F)cc2)c1=O = 79.4
• CCCCn1c(=O)c2nc(C34CCC(C(=O)NCCOCCOCCN=[N+]=[N-])(CC3)CC4)[nH]c2n(CCCNC(=O)c2ccc(S(=O)(=O)F)cc2)c1=O = 22.9

Exam item: Under Adenosine receptor A2b (Homo sapiens): report Ki of C#CCCCCNC(=O)C12CCC(c3nc4c(=O)n(CCCC)c(=O)n(CCCNC(=O)c5ccc(S(=O)(=O)F)cc5)c4[nH]3)(CC1)CC2 .
Marked response: 35.4

Exam item: GET Ki where system = Adenosine receptor A2b (Homo sapiens) and item = CCCCn1c(=O)c2nc(C34CCC(C(=O)NCCCCN=[N+]=[N-])(CC3)CC4)[nH]c2n(CCCNC(=O)c2ccc(S(=O)(=O)F)cc2)c1=O
Marked response: 26.3

Exam item: Consider the compound CCCn1c(=O)c2nc(C34CCC(C(=O)NCCCN=[N+]=[N-])(CC3)CC4)[nH]c2n(CCCNC(=O)c2ccc(S(=O)(=O)F)cc2)c1=O tested on Adenosine receptor A2b (Homo sapiens); state its Ki.
Marked response: 17.8

Exam item: # return Ki for CCCn1c(=O)[nH]c2nc(-c3ccc(S(=O)(=O)N4CCN(c5ccc(Cl)cc5)CC4)cc3)[nH]c2c1=O , test system: Adenosine receptor A2b (Homo sapiens)
Marked response: 1.3

Exam item: Please indicate recorded Ki of CCCCn1c(=O)c2nc(C34CCC(C(=O)NCCOCCOCCOCCN=[N+]=[N-])(CC3)CC4)[nH]c2n(CCCNC(=O)c2ccc(S(=O)(=O)F)cc2)c1=O measured with Adenosine receptor A2b (Homo sapiens).
Marked response: 95.5

----------
- system tested: Adenosine receptor A1 (Homo sapiens) (UniProt P30542)
- measurement conditions: Flp-In-CHO, Membrane, filed as antagonist, time 40.0 min
Below is a list of entries, each paired with its recorded pKb value.
Form field (numeric): enter value without unit.

Field: example entries. Status: answers known.
* O[C@H]1CC[C@H](Nc2nc(-c3ccccc3)nc3[nH]ccc23)CC1 | 9.44
* CCCCn1c(=O)c2nc(C34CCC(C(=O)NCCOCCOCCN=[N+]=[N-])(CC3)CC4)[nH]c2n(CCCNC(=O)c2ccc(S(=O)(=O)F)cc2)c1=O | 8.45
* C#CCNC(=O)C12CCC(c3nc4c(=O)n(CCCC)c(=O)n(CCCNC(=O)c5ccc(S(=O)(=O)F)cc5)c4[nH]3)(CC1)CC2 | 7.51

We now examine a further molecule.
Exam item: Output pKb of CCCn1c(=O)c2nc(C34CCC(C(=O)NCCCN=[N+]=[N-])(CC3)CC4)[nH]c2n(CCCNC(=O)c2ccc(S(=O)(=O)F)cc2)c1=O
Marked response: 8.56

----------
- system tested: Adenosine receptor A1 (Homo sapiens)
- Sequence (P30542 whole entry): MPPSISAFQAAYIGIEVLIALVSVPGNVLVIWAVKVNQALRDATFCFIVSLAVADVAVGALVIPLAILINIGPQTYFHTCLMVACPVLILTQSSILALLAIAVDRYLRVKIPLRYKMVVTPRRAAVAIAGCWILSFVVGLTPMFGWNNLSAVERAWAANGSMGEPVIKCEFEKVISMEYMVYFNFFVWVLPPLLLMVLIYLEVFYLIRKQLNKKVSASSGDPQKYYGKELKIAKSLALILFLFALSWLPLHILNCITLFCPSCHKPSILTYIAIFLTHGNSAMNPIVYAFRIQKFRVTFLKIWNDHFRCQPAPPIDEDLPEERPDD
- measurement conditions: Flp-In-CHO, Membrane, filed as antagonist, time 40.0 min
property name: pKb
The answer should be a number; do not append a unit.

These solved cases illustrate the format of a correct answer.
- CCCCn1c(=O)c2nc(C34CCC(C(=O)NCCCN=[N+]=[N-])(CC3)CC4)[nH]c2n(CCCNC(=O)c2ccc(S(=O)(=O)O)cc2)c1=O: 7.06
- CCCn1c(=O)c2nc(C34CCC(C(=O)NCCCN=[N+]=[N-])(CC3)CC4)[nH]c2n(CCCNC(=O)c2ccc(S(=O)(=O)F)cc2)c1=O: 9.19
- CCCCn1c(=O)c2nc(C34CCC(C(=O)OC)(CC3)CC4)[nH]c2n(CCCNC(=O)c2ccc(S(=O)(=O)O)cc2)c1=O: 7.04
- CCCCn1c(=O)c2nc(C34CCC(C(=O)OC)(CC3)CC4)[nH]c2n(CCCNC(=O)c2ccc(S(=O)(=O)F)cc2)c1=O: 7.77
- CCCCn1c(=O)c2nc(C34CCC(C(=O)NCCOCCOCCN=[N+]=[N-])(CC3)CC4)[nH]c2n(CCCNC(=O)c2ccc(S(=O)(=O)F)cc2)c1=O: 8.86
- O[C@H]1CC[C@H](Nc2nc(-c3ccccc3)nc3[nH]ccc23)CC1: 9.27
- CCCCn1c(=O)c2nc(C3CCCCC3)[nH]c2n(CCCNC(=O)c2ccc(S(=O)(=O)F)cc2)c1=O: 7.59

Next item in the queue.
Exam item: Kindly indicate its recorded pKb. Item: C#CCNC(=O)C12CCC(c3nc4c(=O)n(CCCC)c(=O)n(CCCNC(=O)c5ccc(S(=O)(=O)F)cc5)c4[nH]3)(CC1)CC2
Marked response: 6.23

----------
- system tested: Adenosine receptor A3 (Homo sapiens, UniProt P0DMS8)
- Sequence (P0DMS8 whole entry): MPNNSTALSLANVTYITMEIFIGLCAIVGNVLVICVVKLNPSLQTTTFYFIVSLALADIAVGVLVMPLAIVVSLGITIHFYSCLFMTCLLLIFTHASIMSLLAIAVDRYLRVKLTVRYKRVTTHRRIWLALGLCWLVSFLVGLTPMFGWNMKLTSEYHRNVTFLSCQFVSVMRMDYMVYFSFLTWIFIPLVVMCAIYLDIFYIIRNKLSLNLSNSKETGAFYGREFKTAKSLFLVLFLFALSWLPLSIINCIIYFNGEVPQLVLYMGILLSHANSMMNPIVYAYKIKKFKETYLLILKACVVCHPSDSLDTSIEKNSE
- experiment summary: Antagonist activity at human adenosine A3 receptor expressed in Flp-In-CHO cell membrane assessed as inhibition of NECA-induced cAMP accumulation in presence of forskolin measured after 40 mins by alpha screen LANCE assay
# pKi values compiled below
# log scale: pKi equals minus log10 of the concentration in mol/L

Worked cases, answers included:
- CCCCn1c(=O)c2nc(C34CCC(C(=O)NCCCCN=[N+]=[N-])(CC3)CC4)[nH]c2n(CCCNC(=O)c2ccc(S(=O)(=O)F)cc2)c1=O: 8.31
- C#CCNC(=O)C12CCC(c3nc4c(=O)n(CCCC)c(=O)n(CCCNC(=O)c5ccc(S(=O)(=O)F)cc5)c4[nH]3)(CC1)CC2: 7.33
- CCCn1c(=O)c2nc(C34CCC(C(=O)NCCCN=[N+]=[N-])(CC3)CC4)[nH]c2n(CCCNC(=O)c2ccc(S(=O)(=O)F)cc2)c1=O: 7.96

Next, consider the following compound.
Exam item: Please report the measured pKi for CCCCn1c(=O)c2nc(C34CCC(C(=O)NCCCN=[N+]=[N-])(CC3)CC4)[nH]c2n(CCCNC(=O)c2ccc(S(=O)(=O)F)cc2)c1=O
Marked response: 8.38

----------
- system tested: Adenosine receptor A1 (Homo sapiens)
- experiment summary: Antagonist activity at human adenosine A1 receptor expressed in Flp-In-CHO cell membrane assessed as inhibition of forskolin-stimulated cAMP accumulation preincubated for 5 min followed by forskolin stimulation and further incubated for 30 mins in presence of NECA by alphascreen LANCE assay
Returns: string. Value is Criterion met if measured Ki is below 2 nM, and Criterion not met if it is greater than or equal to it.

Solved cases below.
* CCCCn1c(=O)c2nc(C34CCC(C(=O)NCCOCCOCCN=[N+]=[N-])(CC3)CC4)[nH]c2n(CCCNC(=O)c2ccc(S(=O)(=O)F)cc2)c1=O | Criterion met
* CCCCn1c(=O)c2nc(C34CCC(C(=O)OC)(CC3)CC4)[nH]c2n(CCCNC(=O)c2ccc(S(=O)(=O)O)cc2)c1=O | Criterion not met
* C#CCCCCNC(=O)C12CCC(c3nc4c(=O)n(CCCC)c(=O)n(CCCNC(=O)c5ccc(S(=O)(=O)F)cc5)c4[nH]3)(CC1)CC2 | Criterion met
* CCCCn1c(=O)c2nc(C34CCC(C(=O)NCCCCCCCCN=[N+]=[N-])(CC3)CC4)[nH]c2n(CCCNC(=O)c2ccc(S(=O)(=O)F)cc2)c1=O | Criterion not met

Exam item: Is it true that Ki reported for CCCCn1c(=O)c2nc(C34CCC(C(=O)OC)(CC3)CC4)[nH]c2n(CCCNC(=O)c2ccc(S(=O)(=O)F)cc2)c1=O is less than 2 nM?
Marked response: Criterion not met
